Please respond with reported pIC50 for every item in the list.
- system under test: HIV-1 PR (Human immunodeficiency virus type 1 group M subtype B)
- protocol text: HIV-protease inhibitory activity assay (FRET peptide substrate)
- conditions: Test Example 1
Numbers only, as −log10 of the molar value.

molecule	attribute measured	endpoint result
COC(=O)c1ccc(CNc2ccc(CC(NC(=O)OC3COC4(C)OCCC34)C(O)CN(CC(C)C)S(=O)(=O)c3ccc(OC)cc3)cc2)c(-c2sc3c(c2C(=O)O)CC(C)(C)CC3)c1 (stereo not shown)	pIC50	8.74
COc1ccc(S(=O)(=O)N(CC(C)C)CC(O)C(Cc2ccc(N(C)CC3CCCCC3c3sc4c(c3C(=O)O)CC(C)(C)CC4)cc2)NC(=O)OC2COC3(C)OCCC23)cc1 (stereo not shown) [Compound I-358]	pIC50	8.41
COc1ccc(S(=O)(=O)N(CC(C)C)CC(O)C(Cc2ccc(OCc3cc(N(C)C)ccc3-c3sc4c(c3C(=O)O)CC(C)(C)CC4)cc2)NC(=O)OC2COC3(C)OCCC23)cc1 (stereo not shown)	pIC50	8.47

Here are 7 molecules. What values of pIC50 were reported for them?
1. COc1ccc(S(=O)(=O)N(CC(C)C)CC(O)C(Cc2ccc(NCc3cnc4sccc4c3-c3sc4c(c3C(=O)O)CC(C)(C)CC4)cc2)NC(=O)OC2COC3(C)OCCC23)cc1 (stereo not shown)
2. COc1ccc(S(=O)(=O)N(CC(C)C)CC(O)C(Cc2ccc(OCCNC(=O)c3cc(Cl)ccc3O)cc2)NC(=O)OC2COC3(C)OCCC23)cc1 (stereo not shown)
3. COc1ccc(S(=O)(=O)N(CC(C)C)CC(O)C(Cc2ccc(OCc3ncsc3-c3ccc(-c4sc5c(c4C(=O)O)CC(C)(C)CC5)cc3)cc2)NC(=O)OC2COC3(C)OCCC23)cc1 (stereo not shown)
4. COc1ccc(S(=O)(=O)N(CC(C)C)CC(O)C(Cc2ccc(NCc3cc(C4=CCCCC4)ccc3-c3sc4c(c3C(=O)O)CC(C)(C)CC4)cc2)NC(=O)OC2COC3(C)OCCC23)cc1 (stereo not shown)
5. COc1ccc(S(=O)(=O)N(CC(C)C)CC(O)C(Cc2ccc(OCc3ccccc3-c3sc(Oc4ccccc4)nc3C(=O)O)cc2)NC(=O)OC2COC3OCCC23)cc1 (stereo not shown)
6. COc1ccc(S(=O)(=O)N(CC(C)C)CC(O)C(Cc2ccc(OCc3ccccc3-c3ccc4c(O)c(-c5ccc(F)cc5)c(=O)n(-c5ccccc5)c4c3)cc2)NC(=O)OC2COC3(C)OCCC23)cc1 (stereo not shown)
7. COc1ccc(S(=O)(=O)N(CC(C)C)CC(O)C(Cc2ccc(NCc3cc([N+](=O)[O-])ccc3-c3sc4c(c3C(=O)O)CC(C)(C)CC4)cc2)NC(=O)OC2COC3(C)OCCC23)cc1 (stereo not shown)

[8.64, 9.04, 8.83, 8.47, 8.88, 8.92, 8.51]

---

- system under test: HIV-1 PR (Human immunodeficiency virus type 1 group M subtype B)
- protocol text: HIV-protease inhibitory activity assay (FRET peptide substrate)
- Format: biochemical
- conditions: Test Example 1
Please respond with reported IC50 for every item in the list.
Answers are plain numbers, in nM.

These solved cases illustrate the format of a correct answer.
compound	system under test	unit descriptor	IC50
COc1ccc(S(=O)(=O)N(CC(C)C)CC(O)C(Cc2ccc(N(C)Cc3ccc(F)cc3-c3sc4c(c3C(=O)O)CC(C)(C)CC4)cc2)NC(=O)OC2COC3(C)OCCC23)cc1 (stereo not shown)	HIV-1 PR (Human immunodeficiency virus type 1 group M subtype B)	nM	1.92
COc1ccc(S(=O)(=O)N(CC(C)C)CC(O)C(Cc2ccc(N3CCN(c4ccc(-c5sc6c(c5C(=O)O)CC(C)(C)CC6)cc4)CC3)cc2)NC(=O)OC2COC3(C)OCCC23)cc1 (stereo not shown)	HIV-1 PR (Human immunodeficiency virus type 1 group M subtype B)	nM	3.07
COc1ccc(S(=O)(=O)N(CC2CCC2)CC(O)C(Cc2ccc(N(C)Cc3ccccc3C(=O)Nc3sc4c(c3C(=O)O)CC(C)(C)CC4)cc2)NC(=O)OC2COC3(C)OCCC23)cc1 (stereo not shown)	HIV-1 PR (Human immunodeficiency virus type 1 group M subtype B)	nM	4.37
COc1ccc(S(=O)(=O)N(CC(C)C)CC(O)C(Cc2ccc(NCc3ccc(O)cc3-c3sc4c(c3C(=O)O)CC(C)(C)CC4)cc2)NC(=O)OC2COC3(C)OCCC23)cc1 (stereo not shown)	HIV-1 PR (Human immunodeficiency virus type 1 group M subtype B)	nM	1.49
COc1ccc(S(=O)(=O)N(CC(C)C)CC(O)C(Cc2ccc(N3CC(Oc4ccccc4C(=O)Nc4sc5c(c4C(=O)O)CC(C)(C)CC5)C3)cc2)NC(=O)OC2COC3(C)OCCC23)cc1 (stereo not shown)	HIV-1 PR (Human immunodeficiency virus type 1 group M subtype B)	nM	8.32

Here are 2 compounds. What values of IC50 were reported for them?
1. COc1ccc(S(=O)(=O)N(CC(C)C)CC(O)C(Cc2ccc(NCc3ccc(-c4sc5c(c4C(=O)O)CC(C)(C)CC5)cn3)cc2)NC(=O)OC2COC3(C)OCCC23)cc1 (stereo not shown)
2. COc1ccc(S(=O)(=O)N(CC(C)C)CC(O)C(Cc2ccc(OCC3CCCN3c3ccc(C#N)cc3-c3sc4c(c3C(=O)O)CC(C)(C)CC4)cc2)NC(=O)OC2COC3(C)OCCC23)cc1 (stereo not shown) [Compound I-333]

1. 2.08
2. 11

The reported measurements were obtained from patent US20170253607A1.
